Recorded GI50 by entry
System: A549 NSCLC
method: NCI tumour cell line growth inhibition, 48 h
attribute.measured: GI50

>>> observed("O=C1c2ccc3c4c5ccc(c24)C(=O)N1CCCOCCCCOCCCNCc1ccc(cc1)CNCCCOCCCCOCCCN(C3=O)C5=O")
"1.01 µM"
>>> observed("N#Cc1c2cccnc2c2nnc3cc(Cl)c(Cl)cc3n12")
"> 100 µM"
>>> observed("CS(=O)(=O)c1ccc(-c2cnc(N)c(C(=O)Nc3ccccc3)n2)cc1")
"> 24.2 µM"
>>> observed("O=C(/C=C/c1cccs1)c1ccc(Nc2nc(Nc3ccc(F)cc3)nc(Nc3ccc(F)cc3)n2)cc1")
"3.87 µM"
>>> observed("O=C(CCCCCCSc1nc(-c2ccccc2)cc(-c2ccccc2)n1)NO")
"2.45 µM"

----------
Tested on: NCI-H522 lung
method: NCI tumour cell line growth inhibition, 48 h
So basically: TGI at 30 µM or higher? That is rule met. Lower than 30 µM? That is rule not met.

>>> assigned_label("COc1ccc(C(=O)/C=C/c2c(C(F)(F)F)nc3sccn23)cc1OC")
"rule met"
>>> assigned_label("COC(=O)C1CC=C(SC(=O)c2ccccc2)N1C(=O)c1ccccc1 (stereo not drawn)")
"rule met"
>>> assigned_label("COc1ccccc1N1C(Cl)C(=O)C1c1c[nH]c2ccccc12 (stereo not drawn)")
"rule met"
>>> assigned_label("CN=CN(C)c1c2ccccc2nc2ccccc12")
"rule met"
>>> assigned_label("Cc1cccc(NC(=O)c2cc3cc(N=Nc4ccccc4Cl)ccc3oc2=O)c1")
"rule met"
>>> assigned_label("O=C1c2ccc3c4c5ccc(c24)C(=O)N1CCCOCCCCOCCCNCc1ccc(cc1)CNCCCOCCCCOCCCN(C3=O)C5=O")
"rule not met"
>>> assigned_label("COCC1N=C(c2cc(OC)c(OC)c(OC)c2-c2cc3c(cc2C2OCCCO2)OCO3)O[C@H]1c1ccccc1 (stereo partly drawn)")
"rule met"
>>> assigned_label("CCc1cccc2c3c(sc12)C(c1ccc(Cl)cc1)C(C#N)=C(N)O3 (stereo not drawn)")
"rule not met"
>>> assigned_label("O=C(O)C12C3C4C1C1C2C3C1(Br)C41OCCO1 (stereo not drawn)")
"rule met"
>>> assigned_label("O=C(/C=C/c1ccc(Cl)c(Cl)c1)c1ccc(F)cc1")
"rule not met"
>>> assigned_label("COc1ccc(-c2cnnn2-c2cc(OC)c3c(c2)OCO3)cc1")
"rule not met"
>>> assigned_label("COc1cc(Cl)cc(N(O)C(C)=O)c1OCc1ccccc1")
"rule met"
>>> assigned_label("Cc1ccc(/C=C2/SC(Nc3nc(-c4nc(NC5=NC(=O)/C(=C\\c6ccc(C)cc6)S5)sc4C)c(C)s3)=NC2=O)cc1")
"rule not met"
>>> assigned_label("O=C(N/N=C/c1ccc([N+](=O)[O-])cc1)c1cccc2nc3ccccc3nc12")
"rule met"
>>> assigned_label("COC(=O)c1cc(-c2cc(OC)c(OC)c(OC)c2)[nH]c1N/N=C/c1c(Cl)cccc1Cl")
"rule not met"
>>> assigned_label("C/C(=N\\NC(=S)NC1CCCC1)c1ccccn1")
"rule met"
>>> assigned_label("C=CC(C)(C)C(=C)C(=O)N(C)c1ccccc1I")
"rule met"

----------
System: MOLT-4 leukemia
method: NCI tumour cell line growth inhibition, 48 h
attribute.measured: TGI

>>> observed("C=C1C(=O)OC2C1CC[C@H](C)C13OC(=O)CC1[C@@]23C (some centres undefined)")
"> 100 µM"
>>> observed("CN(C(=O)c1ccc(Cl)cc1)C(=S)N1CCN(c2ccccn2)CC1")
"> 100 µM"
>>> observed("O=Cc1cn(Cc2cccc(Cl)c2)c2ccccc12")
"31.8 µM"
>>> observed("C=CCOC1OC(CS(=O)(=O)O)C(O)C(O)C1O (centres undefined)")
"> 100 µM"
